- Test system: A549 NSCLC
- procedure-details: NCI tumour cell line growth inhibition, 48 h

- input-smiles: "CN(C)CCNC(=O)c1cc(NC(=O)c2cc(NC(=O)CC/C=C3/[C@@H]4CC[C@H]3N=N4)cn2C)cn1C"
  TGI: "> 100 µM"
- input-smiles: "C/C(=N/NC(=S)N1CCN(C(=S)N/N=C(/C)c2ccccn2)CC1)c1ccccn1"
  TGI: "> 100 µM"
- input-smiles: "CC[C@]1(O)C[C@@H]2CN(CCc3c([nH]c4ccccc34)[C@@](C(=O)OC)(c3cc4c(cc3OC)N(C)[C@H]3[C@@](O)(C(N)=O)[C@H](O)[C@]5(CC)[C@@H]6C[C@@H]6CN6CC[C@]43[C@@H]65)C2)C1"
  TGI: "> 33.3 µM"
- input-smiles: "CC(C)(Cc1ccccc1)N1C(=O)N1C(C)(C)Cc1ccccc1"
  TGI: "77.7 µM"
- input-smiles: "Clc1ccc2c(c1)C(N1CCNCC1)=Nc1ccccc1O2"
  TGI: "16.9 µM"
- input-smiles: "Cn1ccc2c(c1=O)C(=O)OC2(C)C"
  TGI: "> 100 µM"
- input-smiles: "Cc1ccc(/C=N\\NC(=O)c2ccncc2)s1"
  TGI: "> 100 µM"
- input-smiles: "CCN(CCCl)c1cccc(NC(=O)c2ccc(C(=O)Nc3cccc(CN(C)C)c3)cc2)c1"
  TGI: "12.2 µM"
- input-smiles: "Cc1nn(CNc2ccccc2C(F)(F)F)c(=S)n1/N=C/c1ccc(F)cc1"
  TGI: "> 100 µM"
- input-smiles: "O=P(O)(O)C=C=C1CCCCC1"
  TGI: "> 100 µM"
